# target.desc: cdMMP-12 (Homo sapiens, UniProt P39900)
# Sequence (P39900 106-263 limits assumed): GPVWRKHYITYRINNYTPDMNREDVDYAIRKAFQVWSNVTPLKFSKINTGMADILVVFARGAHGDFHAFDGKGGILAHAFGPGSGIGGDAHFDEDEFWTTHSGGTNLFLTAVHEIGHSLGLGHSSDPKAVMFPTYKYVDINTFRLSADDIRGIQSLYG
IC50 for assorted molecules
Hi, when you answer, please include the unit after the number. Thanks!

In [3]: df
Out[3]:
                            chemical_string  readout_name  result
0  COc1ccc(S(=O)(=O)N[C@@H](C)C(=O)NC2=NN=C(c3ccc(C)cc3)CS2)cc1          IC50  436 nM

Problem: So what does the record say about IC50 for `CC(C)[C@H](NS(=O)(=O)c1ccccc1)C(=O)NC1=NN=C(c2ccc(Cl)cc2)CS1` ?
Result: 463 nM

Problem: Cool, now `C[C@H](NS(=O)(=O)c1ccccc1)C(=O)NC1=NN=C(c2ccc([N+](=O)[O-])cc2)CS1`
Result: 342 nM

Problem: Cool, now `C[C@H](NS(=O)(=O)c1ccccc1)C(=O)NC1=NN=C(c2ccc(C#N)cc2)CS1`
Result: 447 nM

# credit: patent EP1191024A1
